assay: CCTE_Shafer_MEA_acute_per_network_burst_electrodes_number_mean: CCTE's Neural Acute Assay for Mean Number of Electrodes in a Network Burst, Shafer Lab (AID 2284021);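 further: curves fitted for decreases only so hits reduce electrodes per burst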
Activity calls are given as the source filed them. How the source made its calls: active means hit-call score of the fitted dose curve at least 0.9, where 1 is the maximum; inactive means score below 0.9.
Pick one: active, inactive

Illustrative cases are given below, each with its answer.
compound | discrete_label
O=C(O)C(F)(F)C(F)(F)C(F)(F)C(F)(F)C(F)(F)F | inactive
ClC(Cl)=C(c1ccc(Cl)cc1)c1ccc(Cl)cc1 | inactive
CC#Cc1cc(C)nc(Nc2ccccc2)n1 | active

Task: GET /call?item= CC(c1ccc(O)cc1)(c1ccc(O)cc1)c1ccc(O)cc1 returns the recorded outcome of this test.
Result: inactive

Task: GET /call?item= CCC(C)c1cc([N+](=O)[O-])cc([N+](=O)[O-])c1O (stereo unspecified) returns the recorded outcome of this test.
Result: inactive

Task: GET /call?item= COS(=O)(=O)OC returns the recorded outcome of this test.
Result: inactive

====

assay: STM_H9_CystineISnorm_perc: Stemina devTOX quickPredict H9 human embryonic stem cell (hESC)-based Assay for Cystine (CYSS) Metabolite Biomarker, Normalized (AID 2283713)
Active and inactive are the calls of the source. How the source made its calls: active means hit-call score of the fitted dose curve at least 0.9, where 1 is the maximum; inactive means score below 0.9.
Pick one: active, inactive

Illustrative cases are given below, each with its answer.
molecule | discrete_label
CCOCCOC(C)=O | inactive
ClC1=C(Cl)[C@]2(Cl)[C@@H]3[C@@H]4C[C@@H]([C@H]5O[C@@H]45)[C@@H]3[C@@]1(Cl)C2(Cl)Cl | inactive
Nn1cnnc1 | inactive

Task: GET /call?item= CCC(=O)O[C@H]1CC[C@H]2[C@@H]3CCC4=CC(=O)CC[C@]4(C)[C@H]3CC[C@]12C returns the recorded outcome of this test.
Result: active

Task: GET /call?item= CCCCCCCCOC(=O)c1ccccc1C(=O)OCCCCCCCC returns the recorded outcome of this test.
Result: inactive

Task: GET /call?item= CCNc1nc(NC(C)C)nc(SC)n1 returns the recorded outcome of this test.
Result: active

Task: GET /call?item= CO/C=C(/C(=O)OC)c1ccccc1COc1cccc(C(F)(F)F)n1 returns the recorded outcome of this test.
Result: inactive

Task: GET /call?item= C=CC(N)=O returns the recorded outcome of this test.
Result: inactive

Task: GET /call?item= C1CC2OC2CC1C1CO1 (configuration not stated) returns the recorded outcome of this test.
Result: active

Task: GET /call?item= CC1=C2C[C@H]3[C@@H](CC=C4C[C@@H](O)CC[C@@]43C)[C@@H]2CC[C@]12O[C@@H]1C[C@H](C)CN[C@H]1[C@H]2C returns the recorded outcome of this test.
Result: inactive

Task: GET /call?item= COS(=O)(=O)OC returns the recorded outcome of this test.
Result: inactive

Task: GET /call?item= CCCCCCCCCC[N+](C)(C)CCCCCCCCCC returns the recorded outcome of this test.
Result: active

====

read-out: growth arrest and DNA damage 45 (GADD45B), GADD45B (gene 4616); assay: LTEA_HepaRG_GADD45B: Life Technologies and Expression Analysis (LTEA) Assay for growth arrest and DNA damage 45 (GADD45B) using HepaRG (AID 2283461); settings: mRNA level, 48 h; actives raise or lower the signal
Activity calls are given as the source filed them. How the source made its calls: active means hit-call score of the fitted dose curve at least 0.9, where 1 is the maximum; inactive means score below 0.9.
Pick one: yes (1) (active), no (0) (inactive)

Illustrative cases are given below, each with its answer.
molecule | discrete_label
CCCCCCOC(=O)c1ccccc1C(=O)OCCCCCC | no (0)
C1CC2OC2CC1C1CO1 (configuration not stated) | no (0)
ClC1=C(Cl)[C@]2(Cl)[C@@H]3[C@@H]4C[C@@H]([C@H]5O[C@@H]45)[C@@H]3[C@@]1(Cl)C2(Cl)Cl | no (0)
Cc1cc(-c2ccc(N)c(C)c2)ccc1N | yes (1)
Clc1ccc(C(Cl)(Cl)Cl)cc1 | no (0)

Next:
Task: GET /call?item= O=C(O)C(F)(F)C(F)(F)C(F)(F)C(F)(F)C(F)(F)C(F)(F)C(F)(F)C(F)(F)F returns the recorded outcome of this test.
Result: yes (1)

====

assay: CCTE_Simmons_MITO_viability: CellTiter-Glo Viability Assessment for CCTE's HepG2 Seahorse XF Respirometric Screening Assay [post-hoc], Simmons Lab (AID 2284007)
Records with an inconclusive call do not appear. Active and inactive are the calls of the source. How the source made its calls: active means hit-call score of the fitted dose curve at least 0.9, where 1 is the maximum; inconclusive means response in the unintended direction; inactive means score below 0.9.
Pick one: Y (active), N (inactive)

compound | discrete_label
CO/C=C(/C(=O)OC)c1ccccc1COc1cccc(C(F)(F)F)n1 | N
N#Cc1ccc(N(CC(N)=O)CC(F)(F)F)cc1C(F)(F)F | N

Task: GET /call?item= O=C(O)C(F)(F)C(F)(F)C(F)(F)C(F)(F)C(F)(F)C(F)(F)C(F)(F)C(F)(F)C(F)(F)F returns the recorded outcome of this test.
Result: N

Task: GET /call?item= CCCCCCCCCC[N+](C)(C)CCCCCCCCCC returns the recorded outcome of this test.
Result: Y

Task: GET /call?item= O=C(O)C(F)(F)C(F)(F)C(F)(F)C(F)(F)C(F)(F)C(F)(F)C(F)(F)C(F)(F)F returns the recorded outcome of this test.
Result: N

====

assay: CCTE_Shafer_MEA_acute_per_network_burst_spike_number_mean: CCTE's Neural Acute Assay for Average Number of Spikes in a Network Burst, Shafer Lab (AID 2284019);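 on AC50: curve fitted for loss of signal so actives reduce spikes per network burst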
Activity calls are given as the source filed them. Rule for the calls: active = hit-call score of the fitted dose curve at least 0.9, where 1 is the maximum; inactive = score below 0.9.
property_measured: AC50

Would you please look over these solved cases?
molecule | AC50
Oc1ccc(C(c2ccc(O)cc2)(C(F)(F)F)C(F)(F)F)cc1 | inactive
CC(c1ccc(O)cc1)(c1ccc(O)cc1)c1ccc(O)cc1 | inactive
CCCN(CCC)N=O | inactive
CC#Cc1cc(C)nc(Nc2ccccc2)n1 | 2620 nM (active)
CCCCCCCCCC[N+](C)(C)CCCCCCCCCC | 9230 nM (active)
CCCCCCCCCc1ccc(O)cc1 | inactive
ClC(Cl)=C(c1ccc(Cl)cc1)c1ccc(Cl)cc1 | inactive
CC(C)C(=O)OCC(C)(C)C(OC(=O)C(C)C)C(C)C (configuration not stated) | inactive
CCC(C)(c1ccc(O)cc1)c1ccc(O)cc1 | inactive
CCSC(=O)N(CC)C1CCCCC1 | inactive

Looking up CCC(C)c1cc([N+](=O)[O-])cc([N+](=O)[O-])c1O (configuration not stated) , I see its AC50 listed as inactive

Looking up O=C(NC(=O)c1c(F)cccc1F)Nc1cc(Cl)c(OC(F)(F)C(F)F)c(Cl)c1 , I see its AC50 listed as inactive

Looking up CN(C)CCO , I see its AC50 listed as inactive

Looking up c1ccc(-c2ccccc2)cc1 , I see its AC50 listed as inactive

Looking up COS(=O)(=O)OC , I see its AC50 listed as inactive

Looking up O=C(N[C@H]1CN2CCC1CC2)c1cc2ccoc2cn1 , I see its AC50 listed as inactive

Looking up ClC1=C(Cl)[C@]2(Cl)[C@@H]3[C@H]4C[C@H]([C@@H]5O[C@H]45)[C@@H]3[C@@]1(Cl)C2(Cl)Cl , I see its AC50 listed as 358 nM (active)

====

read-out: Heat shock 70 kDa protein 1 (HSPA1A), gene 3303; test: LTEA_HepaRG_HSPA1A: Life Technologies and Expression Analysis (LTEA) Assay for Heat shock 70 kDa protein 1 (HSPA1A) using HepaRG (AID 2283502); details: mRNA level, 48 h; actives raise or lower the signal
Activity calls are given as the source filed them. The calls were made as follows: active = hit-call score of the fitted dose curve at least 0.9, where 1 is the maximum; inactive = score below 0.9.
Pick one: TRUE (active), FALSE (inactive)

compound | discrete_label
O=C(O)C(F)(F)C(F)(F)C(F)(F)C(F)(F)C(F)(F)C(F)(F)C(F)(F)C(F)(F)C(F)(F)F | FALSE
CCNc1nc(NC(C)C)nc(SC)n1 | FALSE
CCCCCCCCOC(=O)c1ccccc1C(=O)OCCCCCCCC | FALSE

Task: GET /call?item= Clc1ccc(C(Cl)(Cl)Cl)cc1 returns the recorded outcome of this test.
Result: FALSE

Task: GET /call?item= CC#Cc1cc(C)nc(Nc2ccccc2)n1 returns the recorded outcome of this test.
Result: FALSE

Task: GET /call?item= NS(=O)(=O)C(F)(F)C(F)(F)C(F)(F)C(F)(F)C(F)(F)C(F)(F)C(F)(F)C(F)(F)F returns the recorded outcome of this test.
Result: TRUE

Task: GET /call?item= CC1=C2C[C@H]3[C@@H](CC=C4C[C@@H](O)CC[C@@]43C)[C@@H]2CC[C@]12O[C@@H]1C[C@H](C)CN[C@H]1[C@H]2C returns the recorded outcome of this test.
Result: FALSE

Task: GET /call?item= CCOP(=S)(OCC)SCSC(C)(C)C returns the recorded outcome of this test.
Result: FALSE

Task: GET /call?item= Cc1ccccc1O returns the recorded outcome of this test.
Result: FALSE

Task: GET /call?item= O=NN(c1ccccc1)c1ccccc1 returns the recorded outcome of this test.
Result: FALSE

Task: GET /call?item= O=C(NC(=O)c1cc(F)c(F)cc1Cl)Nc1cc(F)ccc1N1CCC(C(=O)O)CC1 returns the recorded outcome of this test.
Result: FALSE

Task: GET /call?item= C=CC(N)=O returns the recorded outcome of this test.
Result: FALSE

Task: GET /call?item= CN(C)c1nc(=O)n(C2CCCCC2)c(=O)n1C returns the recorded outcome of this test.
Result: FALSE

Task: GET /call?item= Cc1cccc([N+](=O)[O-])c1 returns the recorded outcome of this test.
Result: FALSE

Task: GET /call?item= Nc1ccc(-c2ccc(N)cc2)cc1 returns the recorded outcome of this test.
Result: FALSE

Task: GET /call?item= c1cc2ccc3cccc4ccc(c1)c2c34 returns the recorded outcome of this test.
Result: FALSE

Task: GET /call?item= Nn1cnnc1 returns the recorded outcome of this test.
Result: FALSE

Task: GET /call?item= O=C(O)C(F)(F)C(F)(F)C(F)(F)C(F)(F)C(F)(F)F returns the recorded outcome of this test.
Result: FALSE

Task: GET /call?item= O=C(NC(=O)c1c(F)cccc1F)Nc1cc(Cl)c(OC(F)(F)C(F)F)c(Cl)c1 returns the recorded outcome of this test.
Result: FALSE

Task: GET /call?item= Cc1cc2c3c(c1)C(c1ccccc1)=N[C@@H](NC(=O)c1ccncc1)C(=O)N3CC2 returns the recorded outcome of this test.
Result: TRUE
